- Tested on: KP-N-YS;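 note: cell viability assay measuring inhibition of cell line growth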
- measurementProtocol: cells
- Type: functional, cell-based, Homo sapiens
- testConditions: Homo sapiens, KP-N-YS
- Description: SANGER: Inhibition of human KP-N-YS cell growth in a cell viability assay.
Can you tell me IC50 for the items I'm about to list?

Q) Fill in: IC50 of CO[C@H]1C[C@@H]2CC[C@@H](C)[C@@](O)(O2)C(=O)C(=O)N2CCCC[C@H]2C(=O)O[C@H]([C@H](C)C[C@@H]2CC[C@@H](OC(=O)C(C)(CO)CO)[C@H](OC)C2)CC(=O)[C@H](C)/C=C(\C)[C@@H](O)[C@@H](OC)C(=O)[C@H](C)C[C@H](C)/C=C/C=C/C=C/1C [TEMSIROLIMUS] is ___
A) > 200 nM

Q) Same read-out for N#Cc1c(O)c2c(-c3ccc(-c4ccccc4O)cc3)csc2[nH]c1=O ?
A) > 1020 nM

Q) Same read-out for COc1cc2ncn(-c3cc(OCc4ccccc4S(C)(=O)=O)c(C#N)s3)c2cc1OC [GSK-319347A] ?
A) > 5000 nM

* * *

Can you tell me IC50 for the items I'm about to list?
- Test system: WM-115
- measurementProtocol: cells
- Assay type: functional, cell-based, Homo sapiens
- testConditions: Homo sapiens, WM-115
- Description: SANGER: Inhibition of human WM-115 cell growth in a cell viability assay.

Q) Fill in: IC50 of CC(C)c1ccccc1Cc1cc(C(=O)Nc2ccc(S(=O)(=O)c3ccccc3C(C)(C)C)cc2)c(O)c(O)c1O is ___
A) 1.21 µM

Q) Same read-out for Cn1cnc2c(F)c(Nc3ccc(Br)cc3Cl)c(C(=O)NOCCO)cc21 [SELUMETINIB] ?
A) 0.268 µM

Q) Same read-out for C=C(c1ccc(C(=O)O)cc1)c1cc2c(cc1C)C(C)(C)CCC2(C)C [BEXAROTENE] ?
A) > 8 µM

Q) Same read-out for COc1cccc2c1C(=O)c1c(O)c3c(c(O)c1C2=O)C[C@@](O)(C(=O)CO)C[C@@H]3O[C@H]1C[C@H](N)[C@H](O)[C@H](C)O1 [DOXORUBICIN] ?
A) > 1.02 µM

Q) Same read-out for CCC/C=C/C=C/C(=O)O[C@H]1/C(=C/C(=O)OC)C[C@H]2C[C@H]([C@@H](C)O)OC(=O)C[C@H](O)C[C@@H]3C[C@H](OC(C)=O)C(C)(C)[C@](O)(C[C@@H]4C/C(=C/C(=O)OC)C[C@H](/C=C/C(C)(C)[C@]1(O)O2)O4)O3 [BRYOSTATIN 1] ?
A) > 0.008 µM

Q) Same read-out for Cc1cc([N+](=O)[O-])ccc1NS(=O)(=O)c1cc(Cl)ccc1Cl ?
A) > 32 µM

Q) Same read-out for Nc1ccn([C@@H]2O[C@H](CO)[C@@H](O)C2(F)F)c(=O)n1 [GEMCITABINE] ?
A) > 1.02 µM

Q) Same read-out for Nc1cccc2c1CN(C1CCC(=O)NC1=O)C2=O (stereo not given) [LENALIDOMIDE] ?
A) > 5 µM

Q) Same read-out for CN(C)C(=N)NC(=N)N [METFORMIN] ?
A) > 20000 µM

Q) Same read-out for CC(C)CCN1c2nc(Nc3cc(F)c(O)c(F)c3)ncc2N(C)C(=O)C1C (stereo not given) ?
A) > 5 µM

* * *

- System: ChaGo-K-1
- measurementProtocol: cells
- Format: functional, cell-based, Homo sapiens
- testConditions: Homo sapiens, ChaGo-K-1
- Description: SANGER: Inhibition of human ChaGo-K-1 cell growth in a cell viability assay.
pIC50: −log10 of the molar value.
quantity: pIC50

Q) Requested read-out pIC50, target or system ChaGo-K-1, entry Nc1ccn([C@@H]2O[C@H](CO)[C@@H](O)C2(F)F)c(=O)n1 [GEMCITABINE];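 note: growth inhibition of ChaGo-K-1 cells, read out with a cell viability assay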
A) 6.16

Q) Same read-out for CC1(C)CNc2cc(NC(=O)c3cccnc3NCc3ccncc3)ccc21 [MOTESANIB] ?
A) < 5.70

Q) Same read-out for Oc1ccc2ccccc2c1SSc1c(O)ccc2ccccc12 ?
A) < 4.49

Q) Same read-out for CCC/C=C/C=C/C(=O)O[C@H]1/C(=C/C(=O)OC)C[C@H]2C[C@H]([C@@H](C)O)OC(=O)C[C@H](O)C[C@@H]3C[C@H](OC(C)=O)C(C)(C)[C@](O)(C[C@@H]4C/C(=C/C(=O)OC)C[C@H](/C=C/C(C)(C)[C@]1(O)O2)O4)O3 [BRYOSTATIN 1] ?
A) < 8.10

Q) Same read-out for C=C(c1ccc(C(=O)O)cc1)c1cc2c(cc1C)C(C)(C)CCC2(C)C [BEXAROTENE] ?
A) < 5.10

Q) Same read-out for CC(C)CCN1c2nc(Nc3cc(F)c(O)c(F)c3)ncc2N(C)C(=O)C1C (centres undefined) ?
A) < 5.30

Q) Same read-out for COc1cc2c(Nc3ccc(NC(=O)c4ccccc4)cc3)ncnc2cc1OCCCN1CCOCC1 ?
A) < 5.40

Q) Same read-out for CS(=O)(=O)c1ccc(C(=O)Nc2ccc(Cl)c(-c3ccccn3)c2)c(Cl)c1 [VISMODEGIB] ?
A) < 5.00

Q) Same read-out for CN(C)C(=N)NC(=N)N [METFORMIN] ?
A) 2.05
